# measured target: calcitriol receptor (specific receptor protein from the intestines of juvenile pigs) (Sus scrofa)
# Construct: a specific receptor protein from the intestines of juvenile pigs; from tissue; host or cells: intestines of juvenile pigs
# Sequence (A3RGC1 1-427): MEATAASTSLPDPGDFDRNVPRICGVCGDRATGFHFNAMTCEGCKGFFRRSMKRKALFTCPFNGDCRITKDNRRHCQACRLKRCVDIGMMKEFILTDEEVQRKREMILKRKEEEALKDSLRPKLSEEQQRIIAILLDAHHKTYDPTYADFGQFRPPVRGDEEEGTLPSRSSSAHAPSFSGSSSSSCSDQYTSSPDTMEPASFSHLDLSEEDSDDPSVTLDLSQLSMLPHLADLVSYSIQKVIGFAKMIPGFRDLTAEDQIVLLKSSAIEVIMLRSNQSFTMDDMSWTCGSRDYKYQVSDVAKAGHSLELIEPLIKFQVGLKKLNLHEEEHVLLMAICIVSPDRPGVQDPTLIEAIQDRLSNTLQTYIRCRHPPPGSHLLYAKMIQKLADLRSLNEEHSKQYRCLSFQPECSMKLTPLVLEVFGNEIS
# method: calcitriol-receptor test (competition with 3H-calcitriol)
# Assay type: binding, pig
# cond: KF = concentration of test substance / concentration of calcitriol at 50% competition
For each of the molecules below, state its Competition Factor KF for Receptor Bonding.

Problem: For C=C1/C(=C\C=C2/CCC[C@]3(C)[C@@H]([C@H](C)/C=C/[C@@H](O)C4(c5ncc(CC)o5)CC4)CC[C@@H]23)C[C@@H](O)C[C@@H]1O , what is its reported Competition Factor KF for Receptor Bonding?
Result: 3

Problem: So what's the measured Competition Factor KF for Receptor Bonding for this one? C=C1C(=CC=C2CCCC3(C)C2CCC3C(C)C=CC(O)C2(c3ncc(C)o3)CC2)CC(O)CC1O (stereo not shown)
Result: 2

Problem: Tell me the measured Competition Factor KF for Receptor Bonding of C=C1/C(=C\C=C2/CCC[C@]3(C)[C@@H]([C@H](C)/C=C/[C@@H](O)C4(c5ncc(CCC)o5)CC4)CC[C@@H]23)C[C@@H](O)C[C@@H]1O , please.
Result: 2

Problem: Give its Competition Factor KF for Receptor Bonding value. Item: C=C1C(=CC=C2CCCC3(C)C2CCC3C(C)C=CC(O)C2(c3ncc(CCCCC)o3)CC2)CC(O)CC1O (stereo not shown)
Result: 4
